Data provenance is patent US20240208978A1.

assay_target: mIDH1 R132H (Homo sapiens, UniProt O75874, R132H)
Construct: expressed in transfected cells; host or cells: U87MG
Sequence (O75874 whole entry R132H): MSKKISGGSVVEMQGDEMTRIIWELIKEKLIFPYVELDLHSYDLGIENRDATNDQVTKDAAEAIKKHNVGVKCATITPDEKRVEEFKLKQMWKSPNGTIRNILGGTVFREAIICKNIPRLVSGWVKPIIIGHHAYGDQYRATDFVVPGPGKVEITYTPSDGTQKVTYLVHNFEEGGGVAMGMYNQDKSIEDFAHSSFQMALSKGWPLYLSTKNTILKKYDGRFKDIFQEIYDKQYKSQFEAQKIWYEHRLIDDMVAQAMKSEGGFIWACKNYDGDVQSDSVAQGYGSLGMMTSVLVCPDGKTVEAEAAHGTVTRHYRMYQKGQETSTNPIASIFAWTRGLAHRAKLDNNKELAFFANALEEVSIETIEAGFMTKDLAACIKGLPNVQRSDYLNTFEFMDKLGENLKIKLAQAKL
assay_method_text: Detection of 2-HG in supernatant of U87-IDH1 R132H cells
Assay type: cell-based
test_conditions: U-87 MG; 10 nM compound, 72 h, U87MG cells overexpressing mIDH1 R132H, LC-MS-MS; read-out: Inhibition rate on 2-HG in the supernatant of U87-IDH R132H cells, 10 nM
Field: inhibition at 0.01 µM. Provide a value for each of the compounds that follow.

Query (compound): C=CC(=O)N1CC2(CCN(C(CC3CC3)c3ccc([C@H](C)Nc4ncc5[nH]c(=O)n(CC)c5n4)cc3)CC2)C1 (stereo partly shown) [Compound 22] ; field requested: inhibition at 0.01 µM
60 to 90%

Also check C=CC(=O)N(C)C1CN(C(CC2CC2)c2ccc([C@H](C)Nc3ncc4[nH]c(=O)n(CC)c4n3)cc2)C1 (stereo partly shown) [Compound 27]
60 to 90%

Please answer likewise for C=CC(=O)N(C)C1CCN(C(CC2CC2)c2ccc([C@H](C)Nc3ncc4[nH]c(=O)n(CC)c4n3)cc2)CC1 (stereo partly shown) [Compound 28]
60 to 90%

Please do the same for C=CC(=O)N1CCN(C(CC23CC(C2)C3)c2ccc([C@H](C)Nc3ncc4[nH]c(=O)n(C5CCCC5)c4n3)cc2)CC1 (stereo partly shown) [Compound 36] as well.
> 90%

Moving on to the next compound: C=CC(=O)N1CCN(C(CC2CC2)c2ccc(C3(Nc4ncc5[nH]c(=O)n(CC)c5n4)CC3)cc2)CC1 (stereo not shown) [Compound 39]
60 to 90%

Also need C=CC(=O)N1CCN(C(CC23CC(C2)C3)c2ccc([C@H](C)Nc3ncc4[nH]c(=O)n(CC)c4n3)cc2)CC1 (stereo partly shown) [Compound 12] , thanks.
> 90%

Next compound up: C=CC(=O)N1CCN(C(CC(C)C)c2ccc([C@H](C)Nc3ncc4[nH]c(=O)n(C5CC5)c4n3)cc2)CC1 (stereo partly shown) [Compound 30]
> 90%

And for C=CC(=O)NC1CN(C(CC2CC2)c2ccc([C@H](C)Nc3ncc4[nH]c(=O)n(CC)c4n3)cc2)C1 (stereo partly shown) [Compound 25] ?
60 to 90%

Query C=CC(=O)N1CCN(C(CC(C)C)c2ccc([C@H](C)Nc3ncc4[nH]c(=O)n(C5CCCC5)c4n3)cc2)CC1 (stereo partly shown) [Compound 32] next
> 90%

Moving on to the next compound: C=CC(=O)N1CCN(C(CC(C)C)c2ccc([C@H](C)Nc3ncc4[nH]c(=O)n(C5CCC5)c4n3)cc2)CC1 (stereo partly shown) [Compound 31]
> 90%

Please do the same for C=CC(=O)N1CCN(C(CC2CC2)c2ccc(C3(Nc4ncc5[nH]c(=O)n(C(C)C)c5n4)CC3)cc2)CC1 (stereo not shown) [Compound 40] as well.
60 to 90%

How about C=CC(=O)N1CCN([C@@H](CC2CC2)c2ccc([C@H](C)Nc3ncc4c(n3)N(CC)C(=O)OC4)cc2)CC1 [LY-3410738, reference compound] ?
> 90%

Likewise for N#Cc1ccnc(N2C(=O)CC[C@H]2C(=O)N(c2cncc(F)c2)[C@H](C(=O)NC2CC(F)(F)C2)c2ccccc2Cl)c1 [Ivosidenib, ivosidenib, reference compound] ?
< 30%
